# Condition set: in isobutyl acetate, 288.15 K
Measurement label: solubility (mole fraction)

>>> df
                                   molecule           measurement_label  assay_result
0  CC1(C)CC(NCCCCCCNC2CC(C)(C)NC(C)(C)C2)CC(C)(C)N1  solubility (mole fraction)         0.108

----------
# Condition set: in acetonitrile, 298.15 K
Measurement label: solubility (mole fraction)

                                   molecule           measurement_label  assay_result
0  CC1(C)CC(NCCCCCCNC2CC(C)(C)NC(C)(C)C2)CC(C)(C)N1  solubility (mole fraction)       0.00821

----------
# Condition set: in acetone, 303.15 K
Measurement label: solubility (mole fraction)

In [3]: df
Out[3]:
                                   molecule  assay_result
0  CC1(C)CC(NCCCCCCNC2CC(C)(C)NC(C)(C)C2)CC(C)(C)N1         0.117

----------
# Condition set: in n-propyl acetate, 278.15 K
Measurement label: solubility (mole fraction)

In [3]: df
Out[3]:
                                   molecule  assay_result
0  CC1(C)CC(NCCCCCCNC2CC(C)(C)NC(C)(C)C2)CC(C)(C)N1         0.046

----------
# Condition set: in ethyl acetate, 273.15 K
Measurement label: solubility (mole fraction)

>>> print(df.to_string())
                                   molecule           measurement_label  assay_result
0  CC1(C)CC(NCCCCCCNC2CC(C)(C)NC(C)(C)C2)CC(C)(C)N1  solubility (mole fraction)        0.0288

----------
# Condition set: in acetone, 283.15 K
Measurement label: solubility (mole fraction)

>>> print(df.to_string())
                                   molecule  assay_result
0  CC1(C)CC(NCCCCCCNC2CC(C)(C)NC(C)(C)C2)CC(C)(C)N1        0.0191

----------
# Condition set: in ethyl acetate, 303.15 K
Measurement label: solubility (mole fraction)

                                   molecule  assay_result
0  CC1(C)CC(NCCCCCCNC2CC(C)(C)NC(C)(C)C2)CC(C)(C)N1         0.193

----------
# Condition set: in methyl acetate, 298.15 K
Measurement label: solubility (mole fraction)

In [3]: df
Out[3]:
                                   molecule  assay_result
0  CC1(C)CC(NCCCCCCNC2CC(C)(C)NC(C)(C)C2)CC(C)(C)N1         0.142

----------
# Condition set: in n-propyl acetate, 298.15 K
Measurement label: solubility (mole fraction)

                                   molecule  assay_result
0  CC1(C)CC(NCCCCCCNC2CC(C)(C)NC(C)(C)C2)CC(C)(C)N1         0.152

----------
# Condition set: in acetonitrile, 278.15 K
Measurement label: solubility (mole fraction)

                                   molecule  assay_result
0  CC1(C)CC(NCCCCCCNC2CC(C)(C)NC(C)(C)C2)CC(C)(C)N1       0.00183
